Let's go through some IC50 measurements on UniProt P46925 together.
Sequence (P46925 whole entry): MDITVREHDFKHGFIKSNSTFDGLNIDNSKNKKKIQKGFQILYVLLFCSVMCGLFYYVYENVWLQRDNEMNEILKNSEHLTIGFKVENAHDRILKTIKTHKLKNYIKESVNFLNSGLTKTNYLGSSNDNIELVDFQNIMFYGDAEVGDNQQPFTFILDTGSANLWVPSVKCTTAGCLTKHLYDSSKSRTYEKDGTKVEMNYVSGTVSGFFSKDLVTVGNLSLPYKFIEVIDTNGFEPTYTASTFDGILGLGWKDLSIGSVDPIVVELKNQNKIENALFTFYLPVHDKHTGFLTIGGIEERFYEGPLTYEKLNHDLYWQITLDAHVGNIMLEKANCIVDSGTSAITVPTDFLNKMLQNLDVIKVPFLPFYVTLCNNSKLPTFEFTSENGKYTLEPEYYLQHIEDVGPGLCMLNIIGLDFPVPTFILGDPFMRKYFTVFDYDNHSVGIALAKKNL
QUANTITY KIND: IC50 (µM)

[[record]]
mol = "COc1cccc(C(C)(C)NC[C@@H](O)[C@H](Cc2ccccc2)NC(=O)c2cccc(C(=O)NCC(C)(C)C)c2)c1"
quantity_kind = "IC50"
numeric_result = 7.1

[[record]]
mol = "COc1cccc(C(C)(C)NC[C@@H](O)[C@H](Cc2ccccc2)NC(=O)c2cccc(C(=O)NCCC(F)(F)F)c2)c1"
quantity_kind = "IC50"
numeric_result = 10.4

[[record]]
mol = "COc1cccc(C(C)(C)NC[C@@H](O)[C@H](Cc2ccccc2)NC(=O)c2cc(C(=O)NCC3CC3)cc(N3CCCCC3)c2)c1"
quantity_kind = "IC50"
numeric_result = 0.5

[[record]]
mol = "COc1cccc(C(C)(C)NC[C@@H](O)[C@H](Cc2ccccc2)NC(=O)c2cc(C(=O)NCC(C)(C)C)cc(N3CCCCC3)c2)c1"
quantity_kind = "IC50"
numeric_result = 0.85

[[record]]
mol = "CCN(CC)C(=O)c1cc(C(=O)N[C@@H](Cc2ccccc2)[C@H](O)CNC(C)(C)c2cccc(OC)c2)cc(N2CCCCC2)c1"
quantity_kind = "IC50"
numeric_result = 0.16

[[record]]
mol = "COc1cccc(C(C)(C)NC[C@@H](O)[C@H](Cc2ccccc2)NC(=O)c2cc(C(=O)NCC(C)(C)OC)cc(N3CCCCC3)c2)c1"
quantity_kind = "IC50"
numeric_result = 5.4

[[record]]
mol = "COc1cccc(C(C)(C)NC[C@@H](O)[C@H](Cc2ccccc2)NC(=O)c2cc(C(=O)NCCC(F)(F)F)cc(N3CCCCC3)c2)c1"
quantity_kind = "IC50"
numeric_result = 2.2


---

Let's go through some IC50 measurements on Plasmepsin 4 (Plasmodium falciparum, UniProt Q17SB2) together.
Sequence (Q17SB2 whole entry): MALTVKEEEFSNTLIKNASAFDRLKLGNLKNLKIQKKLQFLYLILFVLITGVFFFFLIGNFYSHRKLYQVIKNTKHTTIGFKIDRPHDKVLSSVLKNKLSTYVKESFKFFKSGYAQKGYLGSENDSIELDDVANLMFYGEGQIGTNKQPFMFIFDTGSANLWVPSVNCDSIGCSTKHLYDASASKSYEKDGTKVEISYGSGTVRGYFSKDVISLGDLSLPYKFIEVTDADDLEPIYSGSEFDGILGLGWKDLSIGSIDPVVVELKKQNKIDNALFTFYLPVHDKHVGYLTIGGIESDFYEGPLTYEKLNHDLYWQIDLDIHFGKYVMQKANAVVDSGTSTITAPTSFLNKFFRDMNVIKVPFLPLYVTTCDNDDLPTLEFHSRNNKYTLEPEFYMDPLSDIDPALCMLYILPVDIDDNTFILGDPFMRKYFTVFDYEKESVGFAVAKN
QUANTITY KIND: IC50

[[record]]
mol = "COc1cccc(C(C)(C)NC[C@@H](O)[C@H](Cc2ccccc2)NC(=O)c2cc(C(=O)NCC3CC3)cc(N3CCCCC3)c2)c1"
system_name = "Plasmepsin 4 (Plasmodium falciparum, UniProt Q17SB2)"
result = "30 nM"

[[record]]
mol = "COc1cccc(C(C)(C)NC[C@@H](O)[C@H](Cc2ccccc2)NC(=O)c2cc(C(=O)NCC(C)(C)OC)cc(N3CCCCC3)c2)c1"
system_name = "Plasmepsin 4 (Plasmodium falciparum, UniProt Q17SB2)"
result = "48 nM"

[[record]]
mol = "COc1cccc(C(C)(C)NC[C@@H](O)[C@H](Cc2ccccc2)NC(=O)c2cc(C(=O)N(CCC(F)(F)F)CCC(F)(F)F)cc(N3CCCCC3)c2)c1"
system_name = "Plasmepsin 4 (Plasmodium falciparum, UniProt Q17SB2)"
result = "210 nM"

[[record]]
mol = "COc1cccc(C(C)(C)NC[C@@H](O)[C@H](Cc2ccccc2)NC(=O)c2cc(C(=O)NCCOC(C)(C)C)cc(N3CCCCC3)c2)c1"
system_name = "Plasmepsin 4 (Plasmodium falciparum, UniProt Q17SB2)"
result = "31 nM"

[[record]]
mol = "CCCN(CCC)C(=O)c1cc(F)cc(C(=O)N[C@@H](Cc2ccccc2)[C@H](O)CNC(C)(C)c2cccc(OC)c2)c1"
system_name = "Plasmepsin 4 (Plasmodium falciparum, UniProt Q17SB2)"
result = "50 nM"

[[record]]
mol = "COc1cccc(C(C)(C)NC[C@@H](O)[C@H](Cc2ccccc2)NC(=O)c2cccc(C(=O)NCCC(F)(F)F)c2)c1"
system_name = "Plasmepsin 4 (Plasmodium falciparum, UniProt Q17SB2)"
result = "150 nM"

[[record]]
mol = "CCCN(CCC)C(=O)c1cccc(C(=O)N[C@@H](Cc2ccccc2)[C@H](O)CNC(C)(C)c2cccc(OC)c2)c1"
system_name = "Plasmepsin 4 (Plasmodium falciparum, UniProt Q17SB2)"
result = "58 nM"

[[record]]
mol = "CCCN(CCC)C(=O)c1cc(C(=O)N[C@@H](Cc2ccccc2)[C@H](O)CNC(C)(C)c2cccc(OC)c2)cc(C(=O)N(CCC)CCC)c1"
system_name = "Plasmepsin 4 (Plasmodium falciparum, UniProt Q17SB2)"
result = "18 nM"

[[record]]
mol = "CCN(CC)C(=O)c1cc(C(=O)N[C@@H](Cc2ccccc2)[C@H](O)CNC(C)(C)c2cccc(OC)c2)cc(N2CCCCC2)c1"
system_name = "Plasmepsin 4 (Plasmodium falciparum, UniProt Q17SB2)"
result = "14 nM"

[[record]]
mol = "COc1cccc(C(C)(C)NC[C@@H](O)[C@H](Cc2ccccc2)NC(=O)c2cc(C(=O)NC(C)(C)CO)cc(N3CCCCC3)c2)c1"
system_name = "Plasmepsin 4 (Plasmodium falciparum, UniProt Q17SB2)"
result = "120 nM"

[[record]]
mol = "COc1cccc(C(C)(C)NC[C@@H](O)[C@H](Cc2ccccc2)NC(=O)c2cc(C(=O)NCC(C)(C)C)cc(N3CCCCC3)c2)c1"
system_name = "Plasmepsin 4 (Plasmodium falciparum, UniProt Q17SB2)"
result = "27 nM"

[[record]]
mol = "COc1cccc(C(C)(C)NC[C@@H](O)[C@H](Cc2ccccc2)NC(=O)c2cc(C(=O)NCC3CCCCC3)cc(N3CCCCC3)c2)c1"
system_name = "Plasmepsin 4 (Plasmodium falciparum, UniProt Q17SB2)"
result = "90 nM"

[[record]]
mol = "CCCN(CCC)C(=O)c1cc(C#N)cc(C(=O)N[C@@H](Cc2ccccc2)[C@H](O)CNC(C)(C)c2cccc(OC)c2)c1"
system_name = "Plasmepsin 4 (Plasmodium falciparum, UniProt Q17SB2)"
result = "59 nM"

[[record]]
mol = "CCCN(CCC)C(=O)c1cc(C)cc(C(=O)N[C@@H](Cc2ccccc2)[C@H](O)CNC(C)(C)c2cccc(OC)c2)c1"
system_name = "Plasmepsin 4 (Plasmodium falciparum, UniProt Q17SB2)"
result = "23 nM"


The reported numbers originate from ChEMBL document CHEMBL4330085.
